settings: human, serum
# if measured Hepatotoxicity (acute) < 2: yes (1)  # else: no (0)

{"COMPOUND": "Cc1cccc(Nc2ccccc2C(=O)O)c1C", "ANSWER LABEL": "no (0)"}

Ask | Is Hepatotoxicity (acute) of `CC[C@]1(O)C[C@@H]2CN(CCc3c([nH]c4ccccc34)[C@@](C(=O)OC)(c3cc4c(cc3OC)N(C)[C@H]3[C@@](O)(C(N)=O)[C@H](O)[C@]5(CC)C=CCN6CC[C@]43[C@@H]65)C2)C1` strictly below 2?
Reply | yes (1)

Ask | And for CC(C)N(CCC(C(N)=O)(c1ccccc1)c1ccccn1)C(C)C (stereo not drawn) [DISOPYRAMIDE] ?
Reply | no (0)

Ask | And for CC(C(=O)O)c1ccc(C(=O)c2ccccc2)s1 (stereo not drawn) ?
Reply | no (0)

----------
conditions: human
PARAMETER MEASURED: Hepatotoxicity (cytolytic)
Could you respond with only the numeric value?

Sample answers from the record:
{"COMPOUND": "C=CC[C@@H]1/C=C(\\C)C[C@H](C)C[C@H](OC)[C@H]2O[C@@](O)(C(=O)C(=O)N3CCCC[C@H]3C(=O)O[C@H](/C(C)=C/[C@@H]3CC[C@@H](O)[C@H](OC)C3)[C@H](C)[C@@H](O)CC1=O)[C@H](C)C[C@@H]2OC [TACROLIMUS ANHYDROUS]", "Hepatotoxicity (cytolytic)": 0}
{"COMPOUND": "Nc1nc(N)nc(Nc2ccc([As]3SCC(CO)S3)cc2)n1 (stereo not given)", "Hepatotoxicity (cytolytic)": 0}
{"COMPOUND": "CCN(CC)CC(=O)Oc1ccc(NC(C)=O)cc1", "Hepatotoxicity (cytolytic)": 0}
{"COMPOUND": "O=C1c2c(O)ccc(O)c2C(=O)c2c(NCCNCCO)ccc(NCCNCCO)c21", "Hepatotoxicity (cytolytic)": 0}
{"COMPOUND": "CO/N=C(\\C(=O)N[C@@H]1C(=O)N2C(C(=O)O)=CCS[C@H]12)c1csc(N)n1", "Hepatotoxicity (cytolytic)": 1}

Ask | Using the record for `COc1cccc2c1C(=O)c1c(O)c3c(c(O)c1C2=O)C[C@@](O)(C(=O)CO)C[C@@H]3O[C@H]1C[C@H](N)[C@H](O[C@@H]2CCCCO2)[C@H](C)O1` , report its Hepatotoxicity (cytolytic).
Reply | 0

Ask | And for `C[C@H](CCC(=O)O)[C@H]1CC[C@H]2[C@@H]3[C@@H](O)C[C@@H]4C[C@H](O)CC[C@]4(C)[C@H]3CC[C@]12C` ?
Reply | 0

Ask | And for `CCOc1ccc2ccccc2c1C(=O)N[C@@H]1C(=O)N2[C@@H]1SC(C)(C)[C@@H]2C(=O)O` ?
Reply | 1

Ask | And for CC(CN(C)C)CN1c2ccccc2CCc2ccccc21 (stereo not given) ?
Reply | 1

Ask | And for CC(C(=O)O)c1cccc(C(=O)c2ccccc2)c1 (stereo not given) ?
Reply | 3

Ask | And for C=CCC(C(=O)NC(N)=O)C(C)C (stereo not given) ?
Reply | 0

Ask | And for `CNn1cc(C(=O)O)c(=O)c2cc(F)c(N3CCN(C)CC3)cc21` ?
Reply | 1

Ask | And for C[C@@H](O)[C@H]1C(=O)N2C(C(=O)[O-])=C(SC3Cn4cnc[n+]4C3)[C@H](C)[C@H]12 (stereo not given in full) ?
Reply | 0

Ask | And for `CC(=O)Oc1ccccc1C(=O)O` ?
Reply | 26

Ask | And for `NC(=O)c1cc[n+](CC2=C(C(=O)O)N3C(=O)[C@@H](NC(=O)[C@@H](c4ccccc4)S(=O)(=O)[O-])[C@H]3SC2)cc1` ?
Reply | 0

The measured values listed here are drawn from ChEMBL document CHEMBL3137667.
